# experimental details: in vitro
# measurement context: human, liver microsomes
measured endpoint: half-life (min)
Field format: number, assumed min, no unit text.

Identify measured half-life associated with CC1(C)CC(Nc2ccc3ncc(-c4ccc5[nH]ncc5c4)n3n2)CCO1 (centres unmarked)
7.2

Check the records and state half-life for CN(c1ccc2ncc(-c3ccc4cc[nH]c4c3)n2n1)C1CCOCC1
6.8

Check the records and state half-life for Cn1ncc2ccc(-c3cnc4ccc(NC5CCOCC5)nn34)cc21
11.6

Entry FC1(F)CCC(Nc2ccc3ncc(-c4ccc5[nH]ncc5c4)n3n2)CC1 needs its half-life filled in; supply it.
11.5

====

# target or test system: HuR (Homo sapiens)
# Construct: expressed in transfected cells; host or cells: U251 glioma cells, doxycycline-inducible constructs
# experimental details: cell-based split firefly luciferase-HuR dimerization assay
# measurement context: U251 with dox-inducible HuR-dimerization reporters, after increase in HuR dimerization by two fold, 6 hours; read-out: IC50 for inhibition of HuR dimerization
measured endpoint: pIC50
Please keep in mind that pIC50 is minus log10 of the molar concentration; only the number is needed.

Please report pIC50 for the following molecule: CN(c1ccc2ncc(-c3ccc4cn[nH]c4c3)n2n1)C1CCOCC1
5.72

====

# experimental details: in vivo pharmacokinetic study in mice by ip administration
# Set-up: species or system C57Bl/6 mice
# measurement context: C57Bl/6, mouse, brain/plasma, ip, 10 mg/kg, mouse, 10 mg/kg IP, 1 h, individual animals; read-out: Ratio (Brain/Plasma)
measured endpoint: Kp at 1 h
Please reply with the value in numeric form only.

Please list Kp at 1 h recorded for the compound CN(c1ccc2ncc(-c3ccc4cn[nH]c4c3)n2n1)C1CCOCC1
0.408

====

Exercise: for every item that follows, state its recorded half-life.
# experimental details: Mouse liver microsomal stability in vitro
# Format: in vitro ADME
# measurement context: liver microsomes, read-out: MLM t1/2
Respond with the bare value in min.

Please list half-life recorded for the compound FC1(F)CCC(Nc2ccc3ncc(-c4ccc5cn[nH]c5c4)n3n2)CC1 [Compound 23]
3.9

Please give measured half-life of the following entry: CCCN(c1ccc2ncc(-c3ccc4cn[nH]c4c3)n2n1)C1CCOCC1 [Compound 27]
9.8

Supply recorded half-life for Cc1n[nH]c2cc(-c3cnc4ccc(N(C)C5CCOCC5)nn34)ccc12 [Compound 32] here.
7.3

Give the reported half-life for this compound. Cn1ncc2ccc(-c3cnc4ccc(NC5CCOCC5)nn34)cc21 [Compound 20]
8.1

Answer with reported half-life of CN(c1ccc2ncc(-c3ccc4cn[nH]c4c3)n2n1)C1CCOCC1 [Compound 19]
3.3

Input CN(c1ccc2ncc(-c3ccc4cn[nH]c4c3)n2n1)C1CCC(F)(F)CC1 [Compound 29] , output reported half-life.
15.3

Quote half-life reported for CCCN(C)c1ccc2ncc(-c3ccc4cnn(C)c4c3)n2n1 [Compound 30] please.
1.3

Determine from records and report half-life for CCCN(C)c1ccc2ncc(-c3ccc4[nH]nc(C(C)=O)c4c3)n2n1 [Compound 53]
1.3

State, in one line, measured half-life of CC1(C)CC(Nc2ccc3ncc(-c4ccc5[nH]ncc5c4)n3n2)CCO1 (centres unmarked) [Compound 45]
8.7

Tell me measured half-life for CN(c1ccc2ncc(-c3ccc4cc[nH]c4c3)n2n1)C1CCOCC1 [Compound 13] please.
5.6

Give a short answer stating reported half-life for CCCN(C)c1ccc2ncc(-c3ccc4cn[nH]c4c3)n2n1 [Compound 24] .
3.1

Assign half-life to the following record: CCCNc1ccc2ncc(-c3ccc4[nH]ncc4c3)n2n1 [Compound 48]
2.2

Fill in reported half-life for this entry: FC1(F)CCC(Nc2ccc3ncc(-c4ccc5[nH]ncc5c4)n3n2)CC1 [Compound 46]
4.4

Give half-life for FC(F)(F)CNc1ccc2ncc(-c3ccc4[nH]ncc4c3)n2n1 [Compound 50]
2.6

====

# target or test system: HuR (Homo sapiens, UniProt Q15717)
# Construct: expressed in transfected cells; host or cells: U251 glioma cells, doxycycline-inducible constructs
# Sequence (Q15717 whole entry): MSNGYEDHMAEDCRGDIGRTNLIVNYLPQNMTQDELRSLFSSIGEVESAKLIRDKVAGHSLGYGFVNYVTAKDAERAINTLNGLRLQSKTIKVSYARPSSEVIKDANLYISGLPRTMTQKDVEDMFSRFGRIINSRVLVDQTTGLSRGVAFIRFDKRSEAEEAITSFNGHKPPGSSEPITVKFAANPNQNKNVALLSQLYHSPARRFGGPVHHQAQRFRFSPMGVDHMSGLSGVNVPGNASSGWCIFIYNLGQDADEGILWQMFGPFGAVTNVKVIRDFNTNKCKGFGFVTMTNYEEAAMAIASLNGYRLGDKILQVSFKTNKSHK
# experimental details: cell-based split firefly luciferase-HuR dimerization assay
# measurement context: split luciferase HuR dimerization assay, compounds administered for 6 hours; read-out: HuR IC50
Decision: IC50 beneath 3 µM gives MET; IC50 meeting or exceeding 3 µM gives NOT MET.

Identify whether the molecule c1cc2[nH]ncc2cc1-c1cnc2ccc(NC3CCOCC3)nn12 records IC50 below 3 µM.
MET

Please determine if c1cncc(-c2cnc3ccc(NC4CCOCC4)nn23)c1 is below 3 µM in terms of IC50.
NOT MET

Determine whether this molecule shows IC50 lower than 3 µM (ties excluded): CN(c1ccc2ncc(-c3ccc4cc[nH]c4c3)n2n1)C1CCOCC1
NOT MET

Dear reviewer, please state whether CCCN(C)c1ccc2ncc(-c3ccc4cn[nH]c4c3)n2n1 has IC50 strictly beneath 3 µM.
MET

Threshold test, IC50 < 3 µM: CC(=O)c1n[nH]c2ccc(-c3cnc4ccc(N(C)C5CCOCC5)nn34)cc12
NOT MET

Does this molecule meet the criterion IC50 < 3 µM? c1cc2[nH]ncc2cc1-c1cnc2ccc(N3CCOCC3)nn12
NOT MET

Lab log: compare recorded IC50 with 3 µM; is it strictly lower for c1cnc2cc(-c3cnc4ccc(NC5CCOCC5)nn34)ccc2n1 ?
NOT MET

# strict comparison: is reported IC50 < 3 µM? input = CCCN(C)c1ccc2ncc(-c3cccc(N(C)C)c3)n2n1
NOT MET

Is 3 µM strictly greater than the molecule's reported IC50? molecule: CN(c1ccc2ncc(-c3ccc4[nH]ncc4c3)n2n1)C1CCOCC1
MET

# TODO verify IC50 < 3 µM strictly for this molecule: CN(c1ccc2ncc(-c3ccc4[nH]cnc4c3)n2n1)C1CCOCC1
NOT MET

Please let me know if COc1ccc(-c2cnc3ccc(NC4CCCCC4)nn23)cc1 shows IC50 below 3 µM.
NOT MET

Lab log: compare recorded IC50 with 3 µM; is it strictly lower for c1cc2[nH]ncc2cc1-c1cnc2ccc(OC3CCOCC3)nn12 ?
MET

Hello, is IC50 of the following molecule strictly smaller than 3 µM? CCCN(C)c1ccc2ncc(-c3ccc4[nH]nc(C(C)=O)c4c3)n2n1
NOT MET

IC50 strictly < 3 µM for this molecule? FC(F)(F)CNc1ccc2ncc(-c3ccc4[nH]ncc4c3)n2n1
MET

Threshold test, IC50 < 3 µM: Cc1nn(C)c2cc(-c3cnc4ccc(NC5CCOCC5)nn34)ccc12
NOT MET

Dear reviewer, please state whether Cc1n[nH]c2cc(-c3cnc4ccc(NC5CCOCC5)nn34)ccc12 has IC50 strictly beneath 3 µM.
NOT MET

Field: below-cutoff. Rule: recorded IC50 strictly less than 3 µM. Subject: CN1CCC(N(C)c2ccc3ncc(-c4ccc5cn[nH]c5c4)n3n2)CC1
NOT MET

====

# experimental details: in vivo pharmacokinetic study in mice by ip administration
# Set-up: species or system C57Bl/6 mice
# measurement context: C57Bl/6; mouse, 10 mg/kg ip, Brain
measured endpoint: AUC(0-inf) (ng·h/mL)
Output spec: scalar in ng·h/mL, unitless text.

Determine from records and report AUC(0-inf) for CN(c1ccc2ncc(-c3ccc4cn[nH]c4c3)n2n1)C1CCOCC1
550

====

measured endpoint: IC50

Using PIM1 (Homo sapiens) as the test system, report measured IC50 of CCCN(c1ccc2ncc(-c3ccc4cn[nH]c4c3)n2n1)C1CCOCC1 [Compound 27] .
> 30 µM

GET IC50 where system = PIM1 (Homo sapiens) and item = CN(c1ccc2ncc(-c3ccc4cn[nH]c4c3)n2n1)C1CCOCC1 [Compound 19]
Sequence (P11309 whole entry): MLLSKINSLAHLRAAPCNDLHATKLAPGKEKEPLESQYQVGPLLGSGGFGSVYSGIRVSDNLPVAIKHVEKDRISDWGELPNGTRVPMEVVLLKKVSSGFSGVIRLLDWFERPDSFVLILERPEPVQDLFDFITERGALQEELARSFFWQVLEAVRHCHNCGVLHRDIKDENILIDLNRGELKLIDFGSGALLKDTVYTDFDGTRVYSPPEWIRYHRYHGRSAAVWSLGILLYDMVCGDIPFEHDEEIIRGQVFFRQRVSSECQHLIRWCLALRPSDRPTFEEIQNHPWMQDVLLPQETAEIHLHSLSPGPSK
0.668 µM

Identify measured IC50 obtained with PIM1 (Homo sapiens) for CCN(c1ccc2ncc(-c3ccc4cn[nH]c4c3)n2n1)C1CCOCC1 [Compound 26] .
> 30 µM

====

# target or test system: HuR (Homo sapiens)
# Construct: expressed in transfected cells; host or cells: U251 glioma cells, doxycycline-inducible constructs
# experimental details: cell-based split firefly luciferase-HuR dimerization assay
# measurement context: Concn 50 uM
Class key for HuR N/C Imax % Inh values: low band: < 80%; middle band: ≥ 80% and < 90%; high band: ≥ 90%

Band assignment needed for CN(c1ccc2ncc(-c3ccc4cn[nH]c4c3)n2n1)C1CCCCC1 please.
high band

Quick check: band for O=C(c1ccc(=O)[nH]c1)N1CCN(C(=O)C2CC2c2ccccc2)CC1 (centres unmarked)
low band

Category lookup for the compound CN(CCNc1ccc2ncc(-c3ccc(C(N)=O)cc3)n2n1)C(=O)OC(C)(C)C
low band

Category of FC(F)(F)CNc1ccc2ncc(-c3ccc4[nH]ncc4c3)n2n1 :
high band

Band assignment needed for CN(c1ccc2ncc(-c3ccc4[nH]cnc4c3)n2n1)C1CCOCC1 please.
middle band

Kindly identify the class of Cc1ccc(S(=O)(=O)NC(C(=O)Oc2ccc3c4c(c(=O)oc3c2C)CCC4)c2ccccc2)cc1 (centres unmarked) .
low band

Just checking, what class would you give c1nn(C2CCOCC2)cc1Nc1ncc2nnn(-c3ccc4cn[nH]c4c3)c2n1 here?
high band

State the band of O=C(C1CCCC1)N1CCN(C(=O)C2CC2c2ccc3c(c2)OCO3)CC1 (centres unmarked)
low band

Lab note: which band did CCC(C)NS(=O)(=O)c1ccc2oc(=O)ccc2c1 (centres unmarked) land in?
low band

Which class holds c1cc2cn[nH]c2cc1-n1nnc2cnc(NC3CCOCC3)nc21 ?
middle band

The entry to classify is COc1ccc(-c2[nH]ncc2C(=O)NCC2CC2)cc1Cl ; which class holds it?
low band

Band assignment needed for c1cc2[nH]ncc2cc1-c1cnc2ccc(N3CCOCC3)nn12 please.
middle band

Which class is correct for the following compound? Cn1ncc2ccc(-c3cnc4ccc(NC5CCOCC5)nn34)cc21
high band

# classify by HuR N/C Imax % Inh band: CN(c1ccc2ncc(-c3ccc4cnn(C)c4c3)n2n1)C1CCOCC1
low band

Please let me know in which category the item CCCN(C)c1ccc2ncc(-c3ccc4[nH]nc(C(C)=O)c4c3)n2n1 belongs.
low band
